# method summary: qHTS Validation assay for Inhibitors of Plasmodium falciparum Dd2 growth in vitro; further: nearly all actives have a fitted effect of over 70% in size
# protocol conditions: P. falciparum Dd2 in RBCs, SYBR Green growth, 72 h; series mostly up to 28.7 µM
About 1,600 (39%) of roughly 4,100 compounds were called active. About 25% were inconclusive and are not listed. The call rests on the fitted dose curve; in most records, active means well fitted inhibition curve with a large enough effect; inconclusive means small, poorly fitted or top-dose-only effect; inactive means no such curve, though single readings can be large or run the other way. This is one part of the list.
Field 'call' accepts active, inactive

c1ccc(Oc2ccc(Nc3cnc4ccc(N5CCOCC5)nn34)cc2)cc1; active

Test call, this compound: `CC1=NS(=O)(=O)N(Cc2ccc(F)c(F)c2)C=C1C(=O)O`
inactive

Could you please tell me the result logged for `CCc1nc2c(c(-c3ccc(O)cc3)n1)CCN(Cc1ccc(OC)cc1)CC2` in this assay?
active

What call does the record list for Cc1cccc(C(=O)NC2CCN(c3cc(-c4ccc(Cl)cc4)[nH]n3)C2)c1 (configuration not stated) ?
inactive

// return assay outcome for `CN1CCN(c2ccc(-c3cccc(N)c3)nn2)CC1`
inactive

For `CCc1ccccc1NC(=O)c1cn(C)c(=O)c2ccccc12` , which call appears in the assay record?
inactive

# outcome recorded in this test, key = `Cc1ccc(Cc2nc3ccccc3nc2SCC(=O)N2CCN(c3ccccc3)CC2)cc1`
inactive

###

# method summary: qHTS Validation assay for Inhibitors of Plasmodium falciparum Dd2 growth in vitro; further: nearly all actives have a fitted effect of over 70% in size
# protocol conditions: P. falciparum Dd2 in RBCs, SYBR Green growth, 72 h; series mostly up to 28.7 µM
The whole screen tested about 4,100 compounds, of which about 1,600 (39%) were called active. Not shown: some 25% with an inconclusive outcome. Calls follow the shape of the dose curve; as a rule, active = well fitted inhibition curve with a large enough effect; inconclusive = small, poorly fitted or top-dose-only effect; inactive = no such curve, though single readings can be large or run the other way. Some of the results follow.
# output must be one of active, inactive

Cc1cccc(Nc2cc(C)c3c(O)cccc3n2)c1C; active
CC(=O)Nc1ccc(CN2C(=O)OC3(CCN(C(=O)C4CCC4)CC3)C2(C)c2ccccc2)cc1 (stereo unspecified); inactive
COc1ccc(-c2ccc3c(n2)CN(Cc2csc(C)n2)C(=O)CO3)cc1F; inactive

Record lookup: outcome of this test for `CCn1c(SCC(=O)NNC(=O)Cc2ccccc2)nnc1-c1ccncc1` ?
inactive

What was the test verdict on `Cc1cccc(NC(=O)Cn2c(C)cc3nc4n(c(=O)c32)CCCCC4)c1C` ?
inactive

Assay outcome for CC1(c2ccccc2)N(Cc2cccnc2)C(=O)OC12CCN(Cc1ccccc1)CC2 (stereo unspecified) : what was it?
active

###

# method summary: qHTS Validation assay for Inhibitors of Plasmodium falciparum Dd2 growth in vitro; further: nearly all actives have a fitted effect of over 70% in size
# protocol conditions: P. falciparum Dd2 in RBCs, SYBR Green growth, 72 h; series mostly up to 28.7 µM
Screen size: about 4,100 compounds; about 1,600 (39%) were called active. About 25% were inconclusive and are not listed. Calls follow the shape of the dose curve; as a rule, active = well fitted inhibition curve with a large enough effect; inconclusive = small, poorly fitted or top-dose-only effect; inactive = no such curve, though single readings can be large or run the other way. This is one part of the list.
I would appreciate it if you answered using one of these outcomes: active, inactive

State the result this test recorded for `CC(C)c1cc(C(=O)NC2CCN(c3ncccc3C#N)CC2)n(C)n1` .
inactive

Please let me know the test result on file for `c1ccc(-c2noc(-c3ccn4c(CN5CCSCC5)nnc4c3)n2)cc1` .
inactive

Tell me the recorded outcome of this test for `CCc1c(C)c2ccc3c(c2oc1=O)CN(Cc1ccccc1)CO3` .
active

What classification did COc1ccc(C2CC(c3cccs3)=NN2C(=O)c2ccc(Br)o2)cc1 (stereo unspecified) end up with in this test?
active

Field: outcome | Entry: `O=C(c1ccc2[nH]ncc2c1)N1CCOCC12CCN(CCCc1ccccc1)CC2`
inactive

Would you mind telling me which call this test gave `Nc1nonc1-n1nnc(C(=O)N/N=C/c2ccc(F)cc2)c1-c1ccc2c(c1)OCO2` ?
active

Please indicate how the test categorized COc1ccc(CN2C(=O)C(C)N(C(=O)c3c(F)cccc3F)c3ccccc32)cc1 (stereo unspecified) .
active

Which outcome was entered for the compound `CC1=C[C@@H](CN2CCOCC2)[C@H](C(C)C)C[C@H]1Cc1nnc(-c2ccc([N+](=O)[O-])cc2)o1` in this test?
active

I would be grateful if you could indicate the recorded call for `Cc1ccc(-c2c(C(=O)N/N=C/c3cccc(Cl)c3)nnn2-c2nonc2N)cc1` .
active

Assay outcome for `COc1cnc(-c2ccccn2)nc1Sc1ccc(Cl)cc1` : what was it?
active

Recorded test outcome, item `CN(C)c1ccnc(Nc2ccc(O)cc2)c1C#N`
inactive

Tell me the recorded outcome of this test for `O=C(NCc1nnc2ccc(-c3ccccc3)nn12)c1cc(Cl)ccc1F` .
inactive

Record lookup: outcome of this test for `COc1cnc(-c2ccccn2)nc1Sc1c(Cl)cccc1Cl` ?
active

# lookup: test call for `CCOC(=O)c1c(NC(=O)CSc2nc3ccccc3c(=O)n2-c2ccccc2)sc(C(C)=O)c1C`
active

What outcome does the record of this test show for `Cn1c(=O)c2nc(SCC(=O)Nc3ccc(Cl)c(Cl)c3)n(C)c2n(C)c1=O` ?
inactive

Outcome? `CC1(C)Cc2ccccc2C2=NNC(=O)C2=N1`
active

###

# method summary: qHTS Validation assay for Inhibitors of Plasmodium falciparum Dd2 growth in vitro; further: nearly all actives have a fitted effect of over 70% in size
# protocol conditions: P. falciparum Dd2 in RBCs, SYBR Green growth, 72 h; series mostly up to 28.7 µM
In all, about 4,100 compounds went through this assay and about 1,600 (39%) were called active. Roughly 25% stayed inconclusive and do not appear here. Calls come from the whole dose curve; as a rule, active = well fitted inhibition curve with a large enough effect; inconclusive = small, poorly fitted or top-dose-only effect; inactive = no such curve, though single readings can be large or run the other way. Some of the results follow.
Your response should consist of one outcome taken from TRUE = active, FALSE = inactive

Here are 5 compounds together with their reported answers.
CCCNC(=O)N1CCCCCNC(=O)CC1c1ccccc1 (stereo unspecified); FALSE
Cc1ccc(C(=O)NN2C(=O)C3C4C=CC(C4)[C@@H]3C2=O)cc1 (stereo partly specified); FALSE
N=c1c2c(n(Cc3ccccc3)c3c1CCC3)CCC2; TRUE
O=C1C=C(c2cccc(CO)c2)C[C@@H](c2ccc(Cl)cc2)C1; TRUE
COc1ccc(-n2nc(C3CCN(Cc4ccncc4)CC3)[nH]c2=O)cc1; FALSE

Please let me know the test result on file for `CCNC(=S)N/N=C/c1sc(N2CCCCC2)nc1-c1cccs1` .
TRUE

###

# method summary: qHTS Validation assay for Inhibitors of Plasmodium falciparum Dd2 growth in vitro; further: nearly all actives have a fitted effect of over 70% in size
# protocol conditions: P. falciparum Dd2 in RBCs, SYBR Green growth, 72 h; series mostly up to 28.7 µM
Hit rate of the full screen: of about 4,100 compounds, about 1,600 (39%) were called active. Another 25% or so got no clear call; they are omitted. Calls come from the whole dose curve; as a rule, active = well fitted inhibition curve with a large enough effect; inconclusive = small, poorly fitted or top-dose-only effect; inactive = no such curve, though single readings can be large or run the other way. This is one part of the list.
Give your call using only these classes: yes = active, no = inactive

COc1cc2c(cc1CNc1ncncn1)CCC2; no
COc1cc2nc(NCCc3cccc(C)c3)n3nc(-c4ccccc4)nc3c2cc1OC; yes

Please indicate how the test categorized `Cc1cccc(C(=O)N2CCc3cc(CNC(=O)c4ccc(Br)o4)ccc32)c1` .
yes

Recorded call for `c1csc(-c2nc3nccc(-c4cc5ccccc5o4)n3n2)c1` ?
no

For `Cc1cc(C)c(S(=O)(=O)n2ccc(-c3ccc(OCCN(C)c4ccccn4)cc3)n2)c(C)c1` , what call appears in the results of this test?
yes

Which outcome was entered for the compound CC(=O)SC1CC(=O)N(c2c(C)cccc2C)C1=O (centres undefined) in this test?
no

Entry `COc1ccc(-n2nc(C3CCN([S+](=O)([O-])c4cccc(C(F)(F)F)c4)CC3)[nH]c2=O)cc1` : call = ?
no

# fetch the recorded call for `CNC(=O)[C@@H]1C[C@H](n2cc(CN(C)C(=O)NCC3CCCCC3)nn2)CN1` here
no

Per the records of this test, what outcome belongs to CCN(CC)CCn1c(=N)n(CC(O)COc2ccccc2C)c2ccccc21 (centres undefined) ?
yes

###

# method summary: qHTS Validation assay for Inhibitors of Plasmodium falciparum Dd2 growth in vitro; further: nearly all actives have a fitted effect of over 70% in size; further: potency means the concentration at half of the fitted maximal effect
# protocol conditions: P. falciparum Dd2 in RBCs, SYBR Green growth, 72 h; series mostly up to 28.7 µM
The whole screen tested about 4,100 compounds, of which about 1,600 (39%) were called active. Not shown: some 25% with an inconclusive outcome. Some of the results follow.
assay readout: Potency

Examples with their reported Potency follow.
CCOC(=O)c1c(CSC(=N)N)n(-c2ccc(C)cc2)c2cc(Br)c(OC(C)=O)cc12; 5.96 µM (active)
Cc1cccn2c(=O)c3cc(C(=O)NC4CCCC4)c(=N)n(CCc4ccccc4)c3nc12; 1.88 µM (active)
COc1ccc(-c2[nH]nc3ncc(-c4ccc([S+](C)(=O)[O-])cc4)nc23)c(C)c1; 15.3 µM (active)
O=C(NC1CCCN(c2cc(-c3ccccc3)[nH]n2)C1)c1cccc(Cl)c1 (stereo unspecified); inactive
Cn1nccc1C(=O)N1CCC2(CC1)NCCc1c2[nH]c2ccccc12; inactive

Now examine the next entry.
Query Potency for `COC(=O)c1ccc(Nc2ncnc3c2nc2n3CCCC2)cc1`
inactive

###

# method summary: qHTS Validation assay for Inhibitors of Plasmodium falciparum Dd2 growth in vitro; further: nearly all actives have a fitted effect of over 70% in size
# protocol conditions: P. falciparum Dd2 in RBCs, SYBR Green growth, 72 h; series mostly up to 28.7 µM
Hit rate of the full screen: of about 4,100 compounds, about 1,600 (39%) were called active. Roughly 25% stayed inconclusive and do not appear here. Calls come from the whole dose curve; as a rule, active = well fitted inhibition curve with a large enough effect; inconclusive = small, poorly fitted or top-dose-only effect; inactive = no such curve, though single readings can be large or run the other way. The list shows a part of the results.
Give one outcome, nothing more. List: y = active, n = inactive

GET /call?item= `CN1CCN(c2ccc(Nc3ccnc4cc(Cl)ccc34)cc2)CC1` returns the recorded outcome of this test.
y

Hi team, can someone confirm the assay call for COc1ccc(Br)cc1C1C(C(=O)Nc2ccc(C)cc2C)=C(C)Nc2ncnn21 (stereo not given) ?
n

Can you look up the reported call for `O=c1cc(-c2ccccc2)c2ccc3c(c2o1)CN(Cc1cccc(Cl)c1)CO3` for me?
y

Tell me the recorded outcome of this test for `Cn1c(=O)[nH]c2nnc(-c3ccc(Cl)c(Cl)c3)nc2c1=O` .
y

Called result for `O=C(c1ccc([N+](=O)[O-])o1)N1CCN(c2nc3c(F)cc(F)cc3s2)CC1`
y
